System: NCI-H23 lung
Test: NCI tumour cell line growth inhibition, 48 h; in the data active = GI50 below about 0.43 µM; inactive = the rest
Pick from true (active), false (inactive) when you respond.

Reference set, count: 3
[
  {
    "compound": "COCCNCC(O)Cn1c2ccc(Cl)cc2c2cc(Cl)ccc21 (centres undefined)",
    "experimental_target": "NCI-H23 lung",
    "label_class": "false"
  },
  {
    "compound": "OCC(O)CC[CH2][Sn]([c]1ccccc1)([c]1ccccc1)[c]1ccccc1 (centres undefined)",
    "experimental_target": "NCI-H23 lung",
    "label_class": "false"
  },
  {
    "compound": "C[C@@H]1O[C@@H](O[C@H]2C[C@@H](O)[C@]3(CO)C4C(CC[C@]3(O)C2)[C@@]2(O)CC[C@H](C3=CC(=O)OC3)[C@@]2(C)C[C@H]4O)[C@H](O)[C@H](O)[C@H]1O (some centres undefined)",
    "experimental_target": "NCI-H23 lung",
    "label_class": "true"
  }
]

Now turn to the next compound.
Kindly provide the recorded test outcome for the following compound: O=C(Cn1ccnc1[N+](=O)[O-])N(CCO)CCO false

// data source = PubChem BioAssay (NCI)
